Answer each item with its documented CC50 at 3 days.
Assay overview: Cytotoxicity in HeLa cells, ATP content measured with the ATPlite kit
Assay type: cell-based
Conditions used: human, TOX HELA pCC50

stdin: Give the reported CC50 at 3 days for this compound. CCc1cc(C(=O)N2CCCCCC2C)nc2cc(-c3ccc(CCC(N)=O)cc3F)nn12 (stereo not shown)
stdout: > 25.1 µM

stdin: Supply measured CC50 at 3 days of CNc1cc(C(=O)N2CCCCC[C@H]2C)nc2cc(-c3ccc(/C=C/C(=O)O)cc3F)nn12 in your reply.
stdout: > 25.1 µM

stdin: Given the compound CC1CCCCCN1C(=O)c1cc(N(C)C2CCCCC2)n2nc(-c3ccc(NC(=O)NCC4CCCO4)cc3)cc2n1 (stereo not shown) , write its reported CC50 at 3 days.
stdout: > 100 µM

stdin: Supply recorded CC50 at 3 days for CCc1cc(C(=O)N2CCCCCC2C)nc2cc(-c3ccc(-c4cccnc4)cc3)nn12 (stereo not shown) here.
stdout: 38.9 µM

stdin: Return CC50 at 3 days for the following compound: CCc1cc(C(=O)N2CCCCC[C@H]2C)nc2cc(-c3ccc4ccc(C(=O)O)cc4c3F)nn12
stdout: > 100 µM

stdin: Complete the entry with CC50 at 3 days for CCc1cc(C(=O)N2CCCCCCC2C)nc2cc(-c3ccccc3F)nn12 (stereo not shown)
stdout: > 100 µM

stdin: Give the value of CC50 at 3 days reported for the following: CCc1cc(C(=O)N2CCCCCC2C)nc2cc(-c3ccc4nc(C)ccc4c3)nn12 (stereo not shown)
stdout: > 25.1 µM

stdin: Output CC50 at 3 days of C[C@@H]1CCCCCN1C(=O)c1cc(C2CC2)n2nc(-c3ccc(C4C[C@H]4C(=O)O)cc3F)cc2n1 (single isomer, unassigned)
stdout: 45.7 µM

stdin: Return value of CC50 at 3 days for input CCc1cc(C(=O)N2CCc3ccccc3C2C)nc2cc(-c3ccc(C(=O)NC(C)C(=O)O)cc3F)nn12 (stereo not shown) , no commentary.
stdout: > 25.1 µM

stdin: Please give the documented CC50 at 3 days of CCc1cc(C(=O)N2CCCCCC2C)nc2cc(-c3ccc(NC(=O)Cc4ccncc4)cc3)nn12 (stereo not shown)
stdout: > 25.1 µM

stdin: Specify CC50 at 3 days for CCc1cc(C(=O)N2CCCCCC2C)nc2cc(-c3ccc(S(=O)(=O)N(C)C)cc3F)nn12 (stereo not shown) [Compound P1] and stop.
stdout: > 25.1 µM

stdin: Read off the recorded CC50 at 3 days for CCc1cc(C(=O)N2CCCCC[C@H]2C)nc2cc(-c3ccc(-c4ccc(C(=O)O)cn4)cc3F)nn12
stdout: > 25.1 µM

stdin: Read the entry CCc1cc(C(=O)N2CCCCCC2C)nc2nc(-c3ccc(C(N)=O)cc3F)nn12 (stereo not shown) and write its reported CC50 at 3 days.
stdout: > 25.1 µM

====

Quantity kind: melting point

stdin: # return recorded melting point for input CCc1cc(C(=O)N2CCCCCCC2C)nc2cc(-c3ccc(NS(C)(=O)=O)cc3F)nn12 (stereo not shown)
stdout: 195 to 200 °C

stdin: Given the compound CCCC(=O)Nc1ccc(-c2cc3nc(C(=O)N4CCCCCC4C)cc(CC)n3n2)cc1 (stereo not shown) , write its reported melting point.
stdout: 268 to 270 °C

stdin: Please list melting point recorded for the compound CCc1cc(C(=O)N2CCCCCCC2C)nc2cc(-c3ccccc3F)nn12 (stereo not shown)
stdout: 125 to 130 °C

stdin: Give reported melting point value for CCc1cc(C(=O)N2CCCCCC2C)nc2cc(-c3ccc(NC(=O)Cn4ccnc4)cc3F)nn12 (stereo not shown)
stdout: 155 to 160 °C

stdin: Could you please provide reported melting point for C[C@@H]1CCCCCN1C(=O)c1cc(C2CCC2)n2nc(-c3ccc(-n4cc(C(=O)O)cn4)cc3F)cc2n1 ? Thanks!
stdout: 142.16 °C

stdin: Identify measured melting point associated with CCc1cc(C(=O)N2CCCCC[C@H]2C)nc2cc(-c3ccc(C(N)=O)cc3F)nn12
stdout: 180 °C

stdin: Note melting point for the compound shown: CCc1cc(C(=O)N2CCCCCC2C)nc2cc(-c3ccc(NC(=O)CCC(=O)O)cc3F)nn12 (stereo not shown)
stdout: 225 to 230 °C
